# Test system: A549 NSCLC
# procedureText: NCI tumour cell line growth inhibition, 48 h
Recorded measurements of TGI, one per entry

{"columns": ["compound", "TGI"],
 "data": [
  ["O=C(NC(=S)Nc1ccc(Cl)cc1)c1ccccc1", "> 100 µM"],
  ["OCCCCC#Cc1ccccc1C#Cc1ccccc1C(F)(F)F", "16.6 µM"],
  ["COC(=O)c1c(C(=O)OC)c2cc(C(=O)c3ccccc3)ccn2c1Cl", "> 100 µM"],
  ["O=S(=O)(c1ccc(I)cc1)N(c1ccccc1)S(=O)(=O)C(F)(F)C(F)(F)C(F)(F)C(F)(F)F", "> 100 µM"],
  ["COc1cc(/C=C/C(=O)c2ccc(Cl)cc2)ccc1OS(=O)(=O)c1ccc(C)cc1", "> 100 µM"],
  ["COc1ccc2c3ccc4c(c3n(C)c2c1)C(=O)c1ccccc1C4=O", "> 100 µM"],
  ["CN(C)CCCNC(=O)c1cc(NC(=O)c2cc(NC(=O)c3cc(NC(=O)CCc4c[nH]c5ccccc45)cn3C)cn2C)cn1C", "> 100 µM"],
  ["S=C1N(c2ccc(Cl)cc2)C2=C(N=Nc3ccccc3)C(=Nc3ccccc3S2)N1c1ccccn1", "29.1 µM"],
  ["CC(=O)OC(C)(C)/C=C/C(=O)[C@](C)(O)[C@H]1[C@H](O)C[C@@]2(C)[C@@H]3CC=C4[C@@H](C[C@H](O)C(=O)C4(C)C)[C@]3(C)C(=O)C[C@]12C", "11.4 µM"],
  ["C/C=C(/C)C(=O)O[C@H]1C(C)=C[C@]23C(=O)[C@@H](C=C(COC(C)=O)[C@@H](O)[C@]12O)[C@H]1[C@@H](C[C@H]3C)[C@@]1(C)OC(=O)/C(C)=C\\C", "9.34 µM"],
  ["COc1ccc(/C=C2/C[N+](C)(C)C/C(=C/c3ccc(OC)cc3)C2=O)cc1", "> 100 µM"],
  ["CCOC(CN=c1nc(N(C)C)ss1)OCC", "> 100 µM"],
  ["COC[n+]1cc2cc(OC)c(OC)cc2c2ccc3cc(OC)c(OC)cc3c21", "> 100 µM"],
  ["CC1NC(/C(=C/c2ccccc2O)NC(=O)c2ccccc2)OC1=O (centres undefined)", "> 50 µM"],
  ["O=C1C(=O)N(c2ccc(Cl)c(Cl)c2)C(=O)C(=O)C1c1nc2ccccc2o1", "> 100 µM"],
  ["N#C/C=C1\\C=CC(O)C(O)C1OC1OC(CO)C(O)C(O)C1O (centres undefined)", "> 100 µM"],
  ["CCOC(=O)Oc1c(OC)cc(C(=O)O[C@@H]2C[C@@H]3CN4CCc5c([nH]c6cc(OC)ccc56)[C@H]4C[C@@H]3[C@H](C(=O)OC)[C@H]2OC)cc1OC", "14.2 µM"],
  ["CNC(=O)CCNC(=O)CCC(=O)OC", "> 100 µM"],
  ["N#CS/C(Cl)=C(/C(Cl)=C(Cl)Cl)[N+](=O)[O-]", "> 100 µM"]
]}

###

# Test system: NCI-H460 lung
# procedureText: NCI tumour cell line growth inhibition, 48 h
endpoint: TGI

{"columns": ["compound", "endpoint", "reportedValue"],
 "data": [
  ["CSc1cc(Cl)c(C)cc1S(=O)(=O)NC(=O)NNc1ccc(F)c(Cl)c1", "TGI", "> 100 µM"],
  ["CC(=O)OCC1OC(n2c(=O)n(-c3ccccc3)c(=O)c3ccccc32)C(OC(C)=O)C(OC(C)=O)C1OC(C)=O (stereo not given)", "TGI", "> 100 µM"],
  ["Cc1cc(C)nc(Nc2nc3ccc([N+](=O)[O-])cc3[nH]2)n1", "TGI", "> 100 µM"],
  ["O=C1CC2(CCC(O)(c3ccc(Cl)cc3)C(C(=O)c3ccc(Cl)cc3)C2)C(=O)c2ccccc2N1 (stereo not given)", "TGI", "> 100 µM"],
  ["O=C(Cc1ccccc1)c1ccc2[nH]c(=O)oc2c1", "TGI", "> 100 µM"],
  ["N#CS/C(Cl)=C(/C(Cl)=C(Cl)Cl)[N+](=O)[O-]", "TGI", "> 100 µM"],
  ["C[C@]12CC[C@@H]3c4ccc(O)cc4CC[C@H]3[C@@H]1CC[C@@H]2NS(=O)(=O)Cc1ccc(Cl)cc1", "TGI", "5.31 µM"],
  ["O=C1CCCC2=C1CC1=C(CCCC1=O)N2c1cccc2ccccc12", "TGI", "> 100 µM"],
  ["CN(C)CCNc1ccc2c(=O)n(CCN(C)C)c(=O)n3c4ccc(N)cc4c(=O)c1c23", "TGI", "0.56 µM"],
  ["CN(C)c1ccc2c3c(c(=O)oc2c1)CCC3", "TGI", "> 100 µM"]
]}
